Can you tell me MIC for the items I'm about to list?
# Tested on: Pseudomonas aeruginosa
# assayRemarks: Antimicrobial activity against Pseudomonas aeruginosa RDK 184 assessed as reduction in bacterial growth incubated for 20 hrs by broth microdilution analysis
# Assay type: functional

Problem: Could you share which MIC value was measured for COc1ccc2nccc(OC[C@H]3CC[C@H](NC(=O)c4cc(F)c(Cl)c(F)c4)CC3)c2n1 ?
Result: > 277 µM

Problem: Moving on to the next molecule: COc1ccc2nccc(OC[C@@H]3CC[C@@H](NC(=O)c4cc(F)c(Cl)c(F)c4)CO3)c2n1
Result: > 276 µM

Problem: Try this molecule too: COc1ccc2nccc(OC[C@@H]3CC[C@@H](NC(=O)c4cc(F)c(Br)c(F)c4)CO3)c2n1
Result: > 252 µM

Problem: Queued: COc1ccc2nccc(OC[C@H]3CC[C@H](NC(=O)c4ccc(I)c(F)c4)CC3)c2n1
Result: > 239 µM
